- assay_overview: In vivo pharmacokinetic evaluation after i.v. and p.o. administration to rats
- Set-up: species or system rat
- particulars: rat, plasma, iv, 2 mg/Kg, IV, Mean ± SD of two rats; read-out: VdB (volume of distribution during the elimination phase)
measured_attribute: Vd (L/kg)
Express the result in L/kg but write the number alone.

Can you share its Vd? I mean this compound: COC[C@H]1O[C@H](OCCc2ccccc2)[C@H](NC(=O)CCCN)[C@@H](OCc2ccc3ccccc3c2)[C@@H]1O
3.3

---

- assay_overview: In vivo pharmacokinetic evaluation after i.v. and p.o. administration to rats
- Parameters: species or system rat
- particulars: rat, plasma, iv, 2 mg/Kg, Rat 1, IV; read-out: VdB (volume of distribution during the elimination phase)
measured_attribute: Vd (L/kg)
Hi! Could you send only the number? It should be in L/kg, unit omitted.

Recorded Vd of COC[C@H]1O[C@H](OCCc2ccccc2)[C@H](NC(=O)CCCN)[C@@H](OCc2ccc3ccccc3c2)[C@@H]1O , please.
2.9

---

- system: SSTR-3 (Homo sapiens, UniProt P32745)
- Construct: expressed in transfected cells
- Sequence (P32745 whole entry): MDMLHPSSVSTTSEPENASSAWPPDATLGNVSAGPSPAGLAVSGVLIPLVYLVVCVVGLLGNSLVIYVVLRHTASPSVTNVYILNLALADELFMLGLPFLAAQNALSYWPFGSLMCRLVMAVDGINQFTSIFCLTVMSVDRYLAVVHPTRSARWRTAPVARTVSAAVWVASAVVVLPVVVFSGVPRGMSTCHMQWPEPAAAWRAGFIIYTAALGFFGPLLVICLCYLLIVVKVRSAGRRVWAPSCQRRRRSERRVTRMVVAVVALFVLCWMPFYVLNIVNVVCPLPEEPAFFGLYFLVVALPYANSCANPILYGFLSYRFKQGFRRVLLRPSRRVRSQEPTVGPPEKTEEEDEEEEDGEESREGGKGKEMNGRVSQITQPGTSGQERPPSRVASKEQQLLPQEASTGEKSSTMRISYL
- assay_overview: Radioligand binding screen against somatostatin subtype SSTR-3
- particulars: Table 8; shown where Ki could not be determined (NoModel); read-out: IC50 SSTR3 (in parentheses)
Below, each entry is listed alongside its reported IC50.
Report the value in nM with no unit label.

Example results:
{"molecule": "CS[C@@H]1O[C@H](COCc2ccc3ccccc3c2)[C@@H](O)[C@@H](OCc2ccc3ccccc3c2)[C@H]1NC(=O)CCN", "IC50 (nM)": 228}
{"molecule": "COC[C@H]1O[C@H](OCc2ccc3ccccc3c2)[C@H](NC(=O)CCCN)[C@@H](OCc2ccc(Cl)cc2)[C@@H]1O", "IC50 (nM)": 476}

Could you tell me which IC50 is on file for COC[C@H]1OC(OCc2ccc3ccccc3c2)[C@H](NC(=O)CCCN)[C@@H](OCc2ccc3ccccc3c2)[C@@H]1O (stereo partly drawn) ?
2

---

- system: Human SST5 somatostatin receptor (SSTR5) (Homo sapiens, UniProt P35346)
- Construct: expressed in transfected cells; host or cells: HEK-293 EBNA
- Sequence (P35346 whole entry): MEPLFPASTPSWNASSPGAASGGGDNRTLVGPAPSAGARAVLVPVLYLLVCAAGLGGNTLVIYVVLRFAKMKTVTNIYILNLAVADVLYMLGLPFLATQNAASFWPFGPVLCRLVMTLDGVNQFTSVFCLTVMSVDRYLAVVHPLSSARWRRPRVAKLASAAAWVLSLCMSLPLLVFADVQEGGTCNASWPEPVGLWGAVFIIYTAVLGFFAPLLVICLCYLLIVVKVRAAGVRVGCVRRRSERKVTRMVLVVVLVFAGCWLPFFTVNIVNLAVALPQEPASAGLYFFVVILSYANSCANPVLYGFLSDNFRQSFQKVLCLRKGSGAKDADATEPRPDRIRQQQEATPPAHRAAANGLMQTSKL
- assay_overview: Filter plate assay for SST5 receptor, displacement of [125I]SST-14
- Assay type: binding
- particulars: 10 uM
Here, each record is paired with measured SSTR5 Inhib 10 uM % (inhibition of binding of SST-14 to SSTR5) data.
The reply must contain the numeric value and, after it, the unit.

{"compound": "COC[C@H]1OC(OCc2ccc(Cl)cc2)[C@H](NC(=O)CCCNC(=N)N)[C@H](OCc2ccccc2)[C@@H]1O (stereo partly shown) [Compound 176]", "system": "Human SST5 somatostatin receptor (SSTR5) (Homo sapiens, UniProt P35346)", "test_result": "71%"}
{"compound": "COC1C(O)C(COCc2ccc3ccccc3c2)OC(OCc2ccc3ccccc3c2)C1NC(=O)CCCN (stereo not shown) [Compound 81]", "system": "Human SST5 somatostatin receptor (SSTR5) (Homo sapiens, UniProt P35346)", "test_result": "87%"}
{"compound": "COC[C@H]1OC(OCc2ccc(Cl)cc2)[C@H](NC(=O)CCCN)[C@@H](OCc2ccc(-c3ccccc3)cc2)[C@@H]1O (stereo partly shown) [Compound 90]", "system": "Human SST5 somatostatin receptor (SSTR5) (Homo sapiens, UniProt P35346)", "test_result": "86%"}
{"compound": "COC[C@H]1OC(OCc2ccc(-c3ccccc3)cc2)[C@H](NC(=O)CCNC(=N)N)[C@@H](OCc2ccc(Cl)cc2)[C@@H]1O (stereo partly shown) [Compound 108]", "system": "Human SST5 somatostatin receptor (SSTR5) (Homo sapiens, UniProt P35346)", "test_result": "83%"}

SSTR5 Inhib 10 uM % (inhibition of binding of SST-14 to SSTR5) for COC[C@H]1OC(OCc2ccccc2)[C@H](NC(=O)CCCN)[C@@H](OCc2cccc(O)c2)[C@@H]1O (stereo partly shown) [Compound 144] ?
78%

So what does the record say about SSTR5 Inhib 10 uM % (inhibition of binding of SST-14 to SSTR5) for CSC1O[C@H](COCc2ccc(Cl)cc2)[C@@H](O)[C@@H](OCc2ccc3ccccc3c2)[C@H]1NC(=O)CCCN (stereo partly shown) [Compound 153] ?
76%

Source listed as patent US20080280837A1.
